Data origin: the RNAGym collection of RNA variant scans (doi:10.7554/elife.80360)

B1: HDV Ribozyme (parent)
chain: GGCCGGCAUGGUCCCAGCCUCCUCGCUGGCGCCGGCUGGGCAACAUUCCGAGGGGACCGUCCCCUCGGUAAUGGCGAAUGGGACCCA

- Variants of: B1
- assay method text: self-cleavage, relative activity (ratio to wild type); higher = more cleavage; co-transcriptional
measurement name: self-cleavage
Provide a numeric answer; units are not to be included.

Q) I have this variant here, U27G C44U , and I need its recorded self-cleavage.
A) 0.688

Q) I have this variant here, G25U G52A , and I need its recorded self-cleavage.
A) 0.166

Q) I have this variant here, G40U C63A , and I need its recorded self-cleavage.
A) 0.793

Q) I have this variant here, C61U G81U , and I need its recorded self-cleavage.
A) 0.273

Q) I have this variant here, C48A C64G , and I need its recorded self-cleavage.
A) 0.786

Q) I have this variant here, G39U C64A , and I need its recorded self-cleavage.
A) 0.649

Q) I have this variant here, G52C U69A , and I need its recorded self-cleavage.
A) 1.21

Q) I have this variant here, A45G U79A , and I need its recorded self-cleavage.
A) 0.755

Q) I have this variant here, G1A G68C , and I need its recorded self-cleavage.
A) 0.0978

Q) I have this variant here, U46A G59C , and I need its recorded self-cleavage.
A) 0.57

Q) I have this variant here, G34U U65G , and I need its recorded self-cleavage.
A) 0.146

Q) I have this variant here, G67U U79G , and I need its recorded self-cleavage.
A) 0.516

Q) I have this variant here, G11U C62A , and I need its recorded self-cleavage.
A) 0.487

Q) I have this variant here, G55U G73U , and I need its recorded self-cleavage.
A) 0.295

Q) I have this variant here, C66A C84A , and I need its recorded self-cleavage.
A) 0.831

Q) I have this variant here, C24U A43C , and I need its recorded self-cleavage.
A) 0.0739

Q) I have this variant here, A70U A78U , and I need its recorded self-cleavage.
A) 0.404

Q) I have this variant here, G39C G76C , and I need its recorded self-cleavage.
A) 0.514

Q) I have this variant here, A70G G81A , and I need its recorded self-cleavage.
A) 0.378

Q) I have this variant here, C33U U47G , and I need its recorded self-cleavage.
A) 0.692

Q) I have this variant here, G31A G39U , and I need its recorded self-cleavage.
A) 0.0898

Q) I have this variant here, U23A C86U , and I need its recorded self-cleavage.
A) 0.872

Q) I have this variant here, C30U U79A , and I need its recorded self-cleavage.
A) 0.293

Q) I have this variant here, A16U A43C , and I need its recorded self-cleavage.
A) 0.32

Q) I have this variant here, C13G C41G , and I need its recorded self-cleavage.
A) 0

Q) I have this variant here, C64U A71C , and I need its recorded self-cleavage.
A) 0.719

Q) I have this variant here, C57A A70C , and I need its recorded self-cleavage.
A) 0.773

Q) I have this variant here, A70U G81A , and I need its recorded self-cleavage.
A) 0.332

Q) I have this variant here, C18G C49U , and I need its recorded self-cleavage.
A) 0.138

Q) I have this variant here, C41A A45C , and I need its recorded self-cleavage.
A) 0.504

Q) I have this variant here, C24G C32U , and I need its recorded self-cleavage.
A) 0.0773

Q) I have this variant here, C58U A78U , and I need its recorded self-cleavage.
A) 0.277

Q) I have this variant here, C64A G74U , and I need its recorded self-cleavage.
A) 0.327

Q) I have this variant here, U23A G38U , and I need its recorded self-cleavage.
A) 0.208

Q) I have this variant here, G29A G40A , and I need its recorded self-cleavage.
A) 0.237

Q) I have this variant here, U9G G39U , and I need its recorded self-cleavage.
A) 0.807

Q) I have this variant here, C13A G38A , and I need its recorded self-cleavage.
A) 0.0631

Q) I have this variant here, `C21U` , and I need its recorded self-cleavage.
A) 0.251

Q) I have this variant here, U23C G74C , and I need its recorded self-cleavage.
A) 0.277

Q) I have this variant here, C18U C24A , and I need its recorded self-cleavage.
A) 0.123

Q) I have this variant here, C49U U65A , and I need its recorded self-cleavage.
A) 0.966

Q) I have this variant here, C41A U65C , and I need its recorded self-cleavage.
A) 1.14

Q) I have this variant here, G28U A42C , and I need its recorded self-cleavage.
A) 0.0415

Q) I have this variant here, C33A G54U , and I need its recorded self-cleavage.
A) 0.198

Q) I have this variant here, C63G U65G , and I need its recorded self-cleavage.
A) 0.277

Q) I have this variant here, A43G U60G , and I need its recorded self-cleavage.
A) 0.755

Q) I have this variant here, G35U C44G , and I need its recorded self-cleavage.
A) 0.0755

Q) I have this variant here, G6A G29A , and I need its recorded self-cleavage.
A) 0.0959

Q) I have this variant here, C18U G38U , and I need its recorded self-cleavage.
A) 0.0875

Q) I have this variant here, C22G C36G , and I need its recorded self-cleavage.
A) 0.123

Q) I have this variant here, C24U G76C , and I need its recorded self-cleavage.
A) 0.997

Q) I have this variant here, G74U C85A , and I need its recorded self-cleavage.
A) 0.415

Q) I have this variant here, U72C U79A , and I need its recorded self-cleavage.
A) 0.369

Q) I have this variant here, G1A G81A , and I need its recorded self-cleavage.
A) 0.0462

Q) I have this variant here, U20A A51C , and I need its recorded self-cleavage.
A) 0

Q) I have this variant here, G52U G80U , and I need its recorded self-cleavage.
A) 0.312

Q) I have this variant here, U9G G74U , and I need its recorded self-cleavage.
A) 0.415

Q) I have this variant here, G2A A83G , and I need its recorded self-cleavage.
A) 0.122

Q) I have this variant here, C18G G53U , and I need its recorded self-cleavage.
A) 0.332

Q) I have this variant here, G6U U69C , and I need its recorded self-cleavage.
A) 0.655

Q) I have this variant here, A42C C61U , and I need its recorded self-cleavage.
A) 0.199

Q) I have this variant here, A42U U46C , and I need its recorded self-cleavage.
A) 0.45

Q) I have this variant here, C7A C30U , and I need its recorded self-cleavage.
A) 0.0396

Q) I have this variant here, C62A A78G , and I need its recorded self-cleavage.
A) 0.78

Q) I have this variant here, G54C G67U , and I need its recorded self-cleavage.
A) 0.783

Q) I have this variant here, A56C A83U , and I need its recorded self-cleavage.
A) 0.192

Q) I have this variant here, A16G U79C , and I need its recorded self-cleavage.
A) 1.08

Q) I have this variant here, U9C G74A , and I need its recorded self-cleavage.
A) 0.653

Q) I have this variant here, A16C G73A , and I need its recorded self-cleavage.
A) 0.504

Q) I have this variant here, C15U C86G , and I need its recorded self-cleavage.
A) 0.91

Q) I have this variant here, C14A G59C , and I need its recorded self-cleavage.
A) 0.739

Q) I have this variant here, C64G G73A , and I need its recorded self-cleavage.
A) 0.594

Q) I have this variant here, U69G G81U , and I need its recorded self-cleavage.
A) 0.374

Q) I have this variant here, G17C C44G , and I need its recorded self-cleavage.
A) 0.0723

Q) I have this variant here, G29C U72A , and I need its recorded self-cleavage.
A) 0

Q) I have this variant here, A70C G74A , and I need its recorded self-cleavage.
A) 0.308

Q) I have this variant here, C33G G54U , and I need its recorded self-cleavage.
A) 0.0426

Q) I have this variant here, C19A C85U , and I need its recorded self-cleavage.
A) 0.166

Q) I have this variant here, C66U C75G , and I need its recorded self-cleavage.
A) 0.141

Q) I have this variant here, G40A C41G , and I need its recorded self-cleavage.
A) 0.937

Q) I have this variant here, G34U G82C , and I need its recorded self-cleavage.
A) 0.138

Q) I have this variant here, C15U C64U , and I need its recorded self-cleavage.
A) 0.902

Q) I have this variant here, G25A G80A , and I need its recorded self-cleavage.
A) 0.126

Q) I have this variant here, G35C A43G , and I need its recorded self-cleavage.
A) 0.111

Q) I have this variant here, C18U G54A , and I need its recorded self-cleavage.
A) 0.295

Q) I have this variant here, A16C C33U , and I need its recorded self-cleavage.
A) 0.688

Q) I have this variant here, U9G C30U , and I need its recorded self-cleavage.
A) 0.853

Q) I have this variant here, G10U C36G , and I need its recorded self-cleavage.
A) 0.0615

Q) I have this variant here, C4U G73U , and I need its recorded self-cleavage.
A) 0.138

Q) I have this variant here, C66A C75G , and I need its recorded self-cleavage.
A) 0.181

Q) I have this variant here, A51U C75A , and I need its recorded self-cleavage.
A) 0.123
